# assay system: Cannabinoid-1 receptor (CB1R) (Rattus norvegicus)
# Construct: The tissue obtained from the brain of SD rats was homogenized; from tissue; host or cells: brain of SD rats (membrane pellet of the homogenate)
# Sequence (P20272 whole entry): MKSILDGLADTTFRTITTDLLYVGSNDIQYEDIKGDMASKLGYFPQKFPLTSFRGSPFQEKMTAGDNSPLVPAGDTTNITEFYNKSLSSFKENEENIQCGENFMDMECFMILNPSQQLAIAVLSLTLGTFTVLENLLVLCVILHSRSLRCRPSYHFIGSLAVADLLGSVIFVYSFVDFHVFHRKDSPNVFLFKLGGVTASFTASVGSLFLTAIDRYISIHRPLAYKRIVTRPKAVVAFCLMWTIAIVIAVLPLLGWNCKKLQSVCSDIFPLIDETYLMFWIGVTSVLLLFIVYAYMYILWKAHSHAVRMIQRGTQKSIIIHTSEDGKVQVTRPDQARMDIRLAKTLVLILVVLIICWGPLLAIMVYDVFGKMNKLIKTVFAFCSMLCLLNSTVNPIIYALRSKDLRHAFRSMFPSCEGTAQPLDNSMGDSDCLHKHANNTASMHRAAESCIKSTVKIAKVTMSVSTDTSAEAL
# experiment notes: Cannabinoid-1 receptor (CB1R) binding affinity assay ([3H]CP-55940, rat CB-1 receptor binding protocol)
# condition notes: brain tissue of SD rats, [3H]CP-55940, 30° C. 60 min; read-out: IC50
# IC50 per record follows

| compound | assay system | unit | IC50 |
| --- | --- | --- | --- |
| CCc1c(-c2nnc(CC3CCCCC3)s2)nn(-c2ccc(Cl)cc2Cl)c1-c1ccc(Br)cc1 | Cannabinoid-1 receptor (CB1R) (Rattus norvegicus) | nM | 13.2 |
| CCc1c(-c2nnc(C3(C)CC3)o2)nn(-c2ccc(Cl)cc2Cl)c1-c1ccc(Cl)cc1 | Cannabinoid-1 receptor (CB1R) (Rattus norvegicus) | nM | 11 |
| Cc1c(-c2nnc(C(C)C)s2)nn(-c2ccc(Cl)cc2Cl)c1-c1ccc(Cl)cc1 | Cannabinoid-1 receptor (CB1R) (Rattus norvegicus) | nM | 21.5 |
| CC(C)(C)c1nnc(-c2nn(-c3ccc(Cl)cc3Cl)c(-c3ccc(Cl)cc3)c2Cn2cnnn2)o1 [Example 301] | Cannabinoid-1 receptor (CB1R) (Rattus norvegicus) | nM | 7.64 |

* * *

# assay system: Cannabinoid-1 receptor (CB1R) (Rattus norvegicus)
# Construct: The tissue obtained from the brain of SD rats was homogenized; from tissue; host or cells: brain of SD rats (membrane pellet of the homogenate)
# experiment notes: Cannabinoid-1 receptor (CB1R) binding affinity assay ([3H]CP-55940, rat CB-1 receptor binding protocol)
# condition notes: brain tissue of SD rats, [3H]CP-55940, 30° C. 60 min; read-out: IC50
measured endpoint: log10 of IC50 (log10 of the value in nM)

| molecule | value reported |
| --- | --- |
| Cc1c(-c2nnc(C3CCCCC3)s2)nn(-c2ccccc2Cl)c1-c1ccc(Cl)cc1 | 1.79 |
| CCc1c(-c2nnc(C(C)(C)CC)s2)nn(-c2ccc(Cl)cc2Cl)c1-c1ccc(Br)cc1 | 1.29 |
| Cc1c(-c2nnn(Cc3ccncc3)n2)nn(-c2ccc(Cl)cc2Cl)c1-c1ccc(Cl)cc1 | 2.13 |
| Cc1c(-c2nnn(CCc3ccccc3)n2)nn(-c2ccc(Cl)cc2Cl)c1-c1ccc(Cl)cc1 | 2.09 |
| Clc1ccc(-c2c(Cl)c(-c3nnc(C4CCC4)s3)nn2-c2ccc(Cl)cc2Cl)cc1 | 2.30 |
| Cc1c(-c2nnc(C3CCCC3)s2)nn(-c2ccc(Cl)cc2Cl)c1-c1ccc(Cl)cc1 | 0.94 |
| CCc1c(-c2nnc(C3(c4ccccc4F)CC3)s2)nn(-c2ccc(Cl)cc2Cl)c1-c1ccc(Cl)cc1 | 0.83 |
| Cc1ccc(C2(c3nnc(-c4nn(-c5ccc(Cl)cc5Cl)c(-c5ccc(Cl)cc5)c4C)o3)CC2)cc1 | 0.86 |
| Cc1c(-c2nnc(C(C)(C)C3CCCCC3)s2)nn(-c2ccc(Cl)cc2Cl)c1-c1ccc(Cl)cc1 | 1.14 |
| Cc1c(-c2nnc(C(C)(C)C)s2)nn(-c2ccccc2Cl)c1-c1ccc(Br)cc1 | 1.05 |
| CC(O)c1c(-c2nnc(C3(c4ccc(Cl)cc4)CC3)o2)nn(-c2ccc(Cl)cc2Cl)c1-c1ccc(Cl)cc1 (stereo not drawn) | 0.76 |
| CCc1c(-c2nnc(C3(c4ccc(F)cc4)CC3)o2)nn(-c2ccc(Cl)cc2Cl)c1-c1ccc(Br)cc1 | 0.76 |
| CCc1c(-c2nnc(C3(c4ccc(Cl)cc4)CC3)o2)nn(-c2ccc(Cl)cc2Cl)c1-c1ccc(Br)cc1 | 0.60 |
| CC(C)(C)c1nnc(-c2nn(-c3ccc(Cl)cc3Cl)c(-c3ccc(Cl)cc3)c2Cl)s1 | 1.99 |
| Cc1c(-c2n[nH]c(-c3ccccc3)n2)nn(-c2ccc(Cl)cc2Cl)c1-c1ccc(Cl)cc1 | 2.68 |
